System: MCF7, hormone-independent human breast cancer cells
experiment.summary: Proliferation assay, MCF7
Type: cell-based
measurement.parameters: 96 h, 4 days, crystal violet
observable: IC50 (nM)
Numbers only, in nM.

A selection of reference data follows.
C[C@@H](O)[C@@H](C)Nc1nc(Nc2ccc(N=S(C)(C)=O)cc2)ncc1Br	600
C[C@@H](Nc1nc(Nc2ccc(N=S(C)(C)=O)cc2)ncc1Br)C(C)(C)O	400
CC(C)[C@H](CO)Nc1nc(Nc2ccc(N=S(C)(C)=O)cc2)ncc1I	2200
C[C@@H](O)[C@@H](C)Oc1nc(Nc2ccc(N=S(C)(C)=O)cc2)ncc1Br	300
CS(C)(=O)=Nc1ccc(Nc2ncc(Br)c(Nc3ccccc3)n2)cc1	500

// moving on: another record for IC50
Ask: Report IC50 for "Cc1cccc(Nc2nc(Nc3ccc(N=S(C)(C)=O)cc3)ncc2Br)n1" tested on MCF7, hormone-independent human breast cancer cells.
Reply: 700

* * *

Would you kindly list pIC50 for each of these compounds?
measurement.target: Human Carboanhydrase-2 (Homo sapiens, UniProt P00918)
pIC50: −log10 of the molar value.

C[C@@H](Nc1nc(Nc2ccc(N=S(C)(C)=O)cc2)ncc1Br)C(C)(C)O	< 5.00

Lab note: next compound to report on.
Ask: Give the measured pIC50 of "C[C@@H](O)[C@@H](C)Oc1nc(Nc2ccc(N=S(C)(C)=O)cc2)ncc1Br" .
Reply: < 5.00

* * *

measurement.target: CDK1/CycB (Homo sapiens)
Construct: GST
Sequence (P06493 whole entry): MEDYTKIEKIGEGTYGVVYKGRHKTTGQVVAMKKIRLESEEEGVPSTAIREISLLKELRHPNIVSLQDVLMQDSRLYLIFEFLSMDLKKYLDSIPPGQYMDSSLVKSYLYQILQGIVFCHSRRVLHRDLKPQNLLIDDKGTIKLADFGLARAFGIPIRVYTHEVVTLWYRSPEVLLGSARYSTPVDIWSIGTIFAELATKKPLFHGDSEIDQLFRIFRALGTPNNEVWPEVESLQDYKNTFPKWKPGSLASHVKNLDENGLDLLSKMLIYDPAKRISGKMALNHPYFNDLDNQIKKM
Sequence (P14635 whole entry partner): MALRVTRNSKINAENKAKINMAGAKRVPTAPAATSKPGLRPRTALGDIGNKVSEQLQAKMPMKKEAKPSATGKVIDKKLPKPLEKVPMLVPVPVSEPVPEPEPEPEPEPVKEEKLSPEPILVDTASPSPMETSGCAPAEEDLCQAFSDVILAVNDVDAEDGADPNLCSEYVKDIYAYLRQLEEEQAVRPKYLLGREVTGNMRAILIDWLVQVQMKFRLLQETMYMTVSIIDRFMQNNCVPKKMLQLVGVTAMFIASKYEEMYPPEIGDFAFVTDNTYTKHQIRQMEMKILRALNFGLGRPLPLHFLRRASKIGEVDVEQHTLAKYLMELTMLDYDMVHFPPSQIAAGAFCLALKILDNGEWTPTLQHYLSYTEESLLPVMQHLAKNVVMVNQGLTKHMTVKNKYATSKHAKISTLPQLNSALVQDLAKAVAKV
experiment.summary: CDK1/CycB kinase assay
measurement.parameters: histone IIIS substrate, 0.5 μm ATP, 33P filter assay
I'd appreciate it if you could supply log10 IC50 values for the items below.
Reminder: these figures are log10 of reported IC50, in nM before transformation.

See these solved cases before continuing.
C#CCOc1nc(Nc2ccc(N=S(C)(C)=O)cc2)ncc1C(F)(F)F	2.83
Cc1cccc(Nc2nc(Nc3ccc(N=S(C)(C)=O)cc3)ncc2Br)n1	2.69
C[C@@H](Nc1nc(Nc2ccc(N=S(C)(C)=O)cc2)ncc1Br)C(C)(C)O	2.11
C[C@@H](O)[C@@H](C)Oc1nc(Nc2ccc(N=S(C)(C)=O)cc2)ncc1Br	1.45

Look at each compound and report its log10 IC50.
1. C#CCNc1nc(Nc2ccc(N=S(C)(C)=O)cc2)ncc1C(F)(F)F
2. C[C@@H](O)[C@@H](C)Nc1nc(Nc2ccc(N=S(C)(C)=O)cc2)ncc1Br

Reply:
1. 2.60
2. 1.51

* * *

measurement.target: CDK2/CycE (Homo sapiens, UniProt P24941)
Construct: GST
experiment.summary: CDK2/CycE kinase assay
measurement.parameters: histone IIIS substrate, 0.5 μm ATP, 33P filter assay
Give measured IC50 for each item. Keep answers brief.
Give bare numbers, in nM.

As a guide, the following entries are already answered.
C#CCNc1nc(Nc2ccc(N=S(C)(C)=O)cc2)ncc1C(F)(F)F [Example 10]	220
Cc1cccc(Nc2nc(Nc3ccc(N=S(C)(C)=O)cc3)ncc2Br)n1 [Example 5]	340
C#CCOc1nc(Nc2ccc(N=S(C)(C)=O)cc2)ncc1C(F)(F)F [Example 9]	260

Quick one: give me IC50 for each item below, same order please.
1. C[C@@H](O)[C@@H](C)Nc1nc(Nc2ccc(N=S(C)(C)=O)cc2)ncc1Br [Example 2]
2. CS(C)(=O)=Nc1ccc(Nc2ncc(Br)c(NC3(CO)CCCC3)n2)cc1 [Example 11]

Reply:
1: 11; 2: 680
